# Method summary: protein stability index of a GFP-peptide fusion (yeast GPS) (PSI 1-4); higher = more stable; sorted into four equal gates, so the index is relative within each strain
# Cond: san1∆
This listing pairs sequences with measured protein stability index.
API note: the answer field is a bare number with no unit suffix.

These recorded examples may help you get a feel for the data.
[
  {
    "Residue string": "LEGSVSLPRFSKPVLIV [DIS3]",
    "Recorded value": 2.19
  },
  {
    "Residue string": "SKNLGEINTALNTLLVT [SWI1]",
    "Recorded value": 1.57
  },
  {
    "Residue string": "KTEDPKGGIIASVGDIL [YML031W/NDC1]",
    "Recorded value": 2.43
  },
  {
    "Residue string": "SSLALVFALHKYKPTPL [SMC4]",
    "Recorded value": 2.17
  },
  {
    "Residue string": "TNGGLFGSGTQNNNTLG [YGR119C/NUP57]",
    "Recorded value": 3.02
  },
  {
    "Residue string": "QNCWSLINDSYINDVHL [SSN8]",
    "Recorded value": 3.34
  },
  {
    "Residue string": "WIKNEQERQRQIQKNGP [PRP8]",
    "Recorded value": 2.85
  },
  {
    "Residue string": "SKNSPAEDDVIIPQDIL [YJR042W/NUP85]",
    "Recorded value": 3.07
  }
]

Form field protein stability index, entry DIKDFADKVYTKENLEV [QCR2] : 2.69

Form field protein stability index, entry QLKFEGFALNSDIVFIH [BRR2] : 2.06

----------
# Method summary: protein stability index of a GFP-peptide fusion (yeast GPS) (PSI 1-4); higher = more stable; sorted into four equal gates, so the index is relative within each strain
# Cond: pdr5∆
This listing pairs sequences with measured protein stability index.
API note: the answer field is a bare number with no unit suffix.

[
  {
    "Residue string": "VRNTAPNIRELGVKNLG [YCG1]",
    "protein stability index": 3.29
  },
  {
    "Residue string": "EVYRTSLNTKKNEKLIL [SMC3]",
    "protein stability index": 1.96
  },
  {
    "Residue string": "KKPLSMALNKVLITDHI [CDC53]",
    "protein stability index": 2.24
  },
  {
    "Residue string": "GIVETNRPDNKNAQYHL [RPN7]",
    "protein stability index": 3.21
  }
]

Proceeding to the next sequence to report its protein stability index.
Form field protein stability index, entry TVIPEDEEIIQLHFSLL [RPO21] : 2.98

----------
# Method summary: protein stability index of a GFP-peptide fusion (yeast GPS) (PSI 1-4); higher = more stable; sorted into four equal gates, so the index is relative within each strain
# Cond: ubr1∆
Measured property: protein stability index
API note: the answer field is a bare number with no unit suffix.

[
  {
    "Residue string": "SDSYKVSLQNFSSSVSL [RRP40]",
    "Recorded value": 1.91
  }
]

Form field protein stability index, entry NTGGESVVKKEDNKYAI [RGR1] : 3.4

Form field protein stability index, entry QVARTNLDGTKAVKLRK [ROX3] : 3.15

Form field protein stability index, entry IHSGVLSSIESDLKKRE [YMR153W/NUP53] : 3.09

Form field protein stability index, entry SSNLYETIIEADKSLPS [YJR042W/NUP85] : 2.96

Form field protein stability index, entry SSLALVFALHKYKPTPL [SMC4] : 2.93

Form field protein stability index, entry GKPVSLPLLYNFNPDNG [FAS1] : 2.92

Form field protein stability index, entry NTNNNNNPANNTNNNNS [SWI1] : 3.44

Form field protein stability index, entry LKIFKIFCIDLEVFHHF [SRB8] : 2.53

Form field protein stability index, entry GENVFLKRISDGLSFGK [SIR3] : 3.54

Form field protein stability index, entry KIFVETKFSKLIGRPPL [FAS1] : 1.79

----------
# Method summary: protein stability index of a GFP-peptide fusion (yeast GPS) (PSI 1-4); higher = more stable; sorted into four equal gates, so the index is relative within each strain
# Cond: pdr5∆
Measured property: protein stability index
API note: the answer field is a bare number with no unit suffix.

These recorded examples may help you get a feel for the data.
[
  {
    "Residue string": "YAVKAVENGTTSIGIKC [PRE10]",
    "protein stability index": 2.02
  },
  {
    "Residue string": "SLRTPIAPKITPKVVRS [SEC65]",
    "protein stability index": 3.05
  },
  {
    "Residue string": "CINKWIKTRDACPLDNQ [HRT1]",
    "protein stability index": 3.03
  },
  {
    "Residue string": "SGTAATGAASNQSSFNF [YOR098C/NUP1]",
    "protein stability index": 3.01
  }
]

Form field protein stability index, entry KDAVDYSKIPNILSNKP [RRP6] : 1.97

----------
# Method summary: protein stability index of a GFP-peptide fusion (yeast GPS) (PSI 1-4); higher = more stable; sorted into four equal gates, so the index is relative within each strain
# Cond: doa10∆
This listing pairs sequences with measured protein stability index.
API note: the answer field is a bare number with no unit suffix.

These recorded examples may help you get a feel for the data.
[
  {
    "Residue string": "KYLDQVLDHQRAIPFRR [RPL17B]",
    "Recorded value": 2.78
  },
  {
    "Residue string": "TEFSKNDLEVGVATKDK [SCL1]",
    "Recorded value": 2.95
  },
  {
    "Residue string": "FSYFFESFESYHNLTTH [RPN6]",
    "Recorded value": 2.61
  },
  {
    "Residue string": "AQYGIKALPIRRDDEVL [RPL26A]",
    "Recorded value": 3.63
  }
]

Proceeding to the next sequence to report its protein stability index.
Form field protein stability index, entry SDKIPYVAPTKKEYIEL [SRB4] : 2.77

----------
# Method summary: protein stability index of a GFP-peptide fusion (yeast GPS) (PSI 1-4); higher = more stable; sorted into four equal gates, so the index is relative within each strain
# Cond: pdr5∆
Hi, to clarify the labels: satisfied covers protein stability index from 3 upward, not satisfied covers anything below 3.

Some entries whose results are on file:
[
  {
    "Residue string": "VNGFLNLGYCNDKLIVD [RPN1]",
    "Label value": "not satisfied"
  },
  {
    "Residue string": "KVTEKVLTQLTALALKY [CSI1]",
    "Label value": "not satisfied"
  },
  {
    "Residue string": "MISIIKLVTNVVDPKTS [YML103C/NUP188]",
    "Label value": "not satisfied"
  },
  {
    "Residue string": "FFLRDTLLWNKNDKLIK [SNF5]",
    "Label value": "not satisfied"
  },
  {
    "Residue string": "YQRSKRVNNPNVSLIKI [RPL33A]",
    "Label value": "satisfied"
  }
]

Has IVKGNIIDEIKCIPKKG [POP4] a recorded protein stability index greater than or equal to 3?
not satisfied

Has FVQLCEMGYLIQISKLH [RPC82] a recorded protein stability index greater than or equal to 3?
not satisfied

----------
# Method summary: protein stability index of a GFP-peptide fusion (yeast GPS) (PSI 1-4); higher = more stable; sorted into four equal gates, so the index is relative within each strain
# Cond: san1∆
Hi, to clarify the labels: criterion met covers protein stability index from 3 upward, criterion not met covers anything below 3.

Some entries whose results are on file:
[
  {
    "Residue string": "RRDDEVLVVRGSKKGQE [RPL26A]",
    "Label value": "criterion met"
  },
  {
    "Residue string": "QLVEITEQIKMRILSND [SRB8]",
    "Label value": "criterion not met"
  },
  {
    "Residue string": "SNNITSGLNRAISTGNW [RET1]",
    "Label value": "criterion met"
  },
  {
    "Residue string": "KFSSRHGQKGVCGIIVK [RET1]",
    "Label value": "criterion met"
  },
  {
    "Residue string": "TSKWLNSITSGGLKSCD [YDL116W/NUP84]",
    "Label value": "criterion met"
  }
]

Has DDEDDEHNPTIVGGLYY [AAR2] a recorded protein stability index greater than or equal to 3?
criterion met

Has RHIKSKHEDLSLEQRQE [RPN4] a recorded protein stability index greater than or equal to 3?
criterion not met

Has TSTKDKNSSTSNTEPIP [MED1] a recorded protein stability index greater than or equal to 3?
criterion met

Has DGYQLFHAEPSGTFYRY [PUP2] a recorded protein stability index greater than or equal to 3?
criterion not met

Has SKFHFSWNESEDTLSGY [PRP28] a recorded protein stability index greater than or equal to 3?
criterion met

Has EAGLQLCRQGHNMLNLL [PRP8] a recorded protein stability index greater than or equal to 3?
criterion not met

Has KKKAFTKYSAKYAQDGA [RPL3] a recorded protein stability index greater than or equal to 3?
criterion met
